Test system: IL-6 in THP-1 cells
Experiment: Inhibition of IL-6 in LPS-stimulated THP-1 human monocyte cells (HTRF)
Format: cell-based
Conditions: LPS, IL-6 HTRF, at 10 μM, read-out: percent inhibition in brackets (given for EC50 >10 μM)
READOUT_LABEL: inhibition at 10 µM (%)
Form entry: value (%) — number only.

These recorded examples may help you get a feel for the data.
CCCC(=O)Nc1cncc(-c2ccc3[nH]nc(-c4nc5c(-c6cc(F)cc(CNS(C)(=O)=O)c6)cncc5[nH]4)c3n2)c1 = 28.6
Fc1ccccc1-c1cncc2[nH]c(-c3n[nH]c4ccc(-c5ccccn5)nc34)nc12 = 46.8
Clc1ccc(-c2cncc3[nH]c(-c4n[nH]c5ccc(-c6cncc(CN7CCCC7)c6)nc45)nc23)s1 = 29.8

Turning now to a further compound:
Summary for this compound, CC(C)C(=O)Nc1cncc(-c2ccc3[nH]nc(-c4nc5c(-c6cccnc6)cncc5[nH]4)c3n2)c1 : inhibition at 10 µM is 18
